# tested-system: human recombinant HDAC6 (Homo sapiens)
# Construct: purchased Calbiochem Inc. 382180
# Sequence (Q9UBN7 1-1215): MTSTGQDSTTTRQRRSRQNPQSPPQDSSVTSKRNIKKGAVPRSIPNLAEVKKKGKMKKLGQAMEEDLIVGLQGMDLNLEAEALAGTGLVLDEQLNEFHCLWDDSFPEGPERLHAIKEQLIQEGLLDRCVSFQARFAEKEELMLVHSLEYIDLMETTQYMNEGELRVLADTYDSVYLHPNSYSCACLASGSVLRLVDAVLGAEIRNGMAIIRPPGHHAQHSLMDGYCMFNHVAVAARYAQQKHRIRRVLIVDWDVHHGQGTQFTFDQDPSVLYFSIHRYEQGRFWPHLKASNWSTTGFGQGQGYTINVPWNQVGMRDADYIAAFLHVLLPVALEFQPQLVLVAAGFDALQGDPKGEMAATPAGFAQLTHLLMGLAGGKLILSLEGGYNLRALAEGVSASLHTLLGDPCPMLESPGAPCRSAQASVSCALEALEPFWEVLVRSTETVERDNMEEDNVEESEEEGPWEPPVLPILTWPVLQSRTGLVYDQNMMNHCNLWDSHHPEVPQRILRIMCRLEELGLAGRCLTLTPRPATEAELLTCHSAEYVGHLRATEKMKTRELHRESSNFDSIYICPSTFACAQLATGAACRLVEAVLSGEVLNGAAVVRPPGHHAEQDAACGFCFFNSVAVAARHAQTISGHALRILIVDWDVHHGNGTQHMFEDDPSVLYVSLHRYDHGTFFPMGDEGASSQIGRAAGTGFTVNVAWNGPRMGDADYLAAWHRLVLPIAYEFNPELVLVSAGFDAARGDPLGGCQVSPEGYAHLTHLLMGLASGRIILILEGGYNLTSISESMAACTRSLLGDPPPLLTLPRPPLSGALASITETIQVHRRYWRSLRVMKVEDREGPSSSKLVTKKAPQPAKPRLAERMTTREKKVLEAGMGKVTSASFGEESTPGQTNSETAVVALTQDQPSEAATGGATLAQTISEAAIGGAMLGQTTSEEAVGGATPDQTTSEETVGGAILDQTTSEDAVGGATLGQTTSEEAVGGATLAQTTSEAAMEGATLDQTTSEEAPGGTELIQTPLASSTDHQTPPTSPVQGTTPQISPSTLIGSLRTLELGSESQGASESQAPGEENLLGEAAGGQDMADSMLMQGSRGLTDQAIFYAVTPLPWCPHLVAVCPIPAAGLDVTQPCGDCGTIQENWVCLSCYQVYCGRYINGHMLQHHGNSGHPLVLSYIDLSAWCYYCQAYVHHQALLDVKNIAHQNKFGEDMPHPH
# method-summary: HDAC6 enzyme activity inhibition (HDAC Fluorimetric Drug Discovery Kit)
# Assay type: biochemical
# experimental-setup: HDAC1 IC50 / HDAC6 IC50
measure: HDAC6 selectivity (fold)

>>> quantitative_result("CNCc1cccc(-c2cn(Cc3ccc(-c4nnc(C(F)F)o4)cn3)nn2)c1 [Compound 3919]")
1358
>>> quantitative_result("FC(F)c1nnc(-c2ccc(Cn3cc(-c4ccc5cc[nH]c5c4)nn3)cc2)o1 [Compound 4076]")
739
>>> quantitative_result("Fc1cc(-c2nnc(C(F)F)o2)ccc1Cn1cc(-c2ccc3c(CN4CCOCC4)c[nH]c3c2)nn1 [Compound 4112]")
3125
>>> quantitative_result("CN1CC(c2cccc(-c3cn(Cc4ccc(-c5nnc(C(F)F)o5)cc4F)nn3)c2)C1 [Compound 4460]")
148
>>> quantitative_result("FC(F)c1nnc(-c2ccc(Cn3cc(-c4cccc(CN5CC(F)(F)C5)c4)nn3)cc2)o1 [Compound 4417]")
487
>>> quantitative_result("CN1CCc2cc(-c3cn(Cc4ccc(-c5nnc(C(F)F)o5)cn4)nn3)ccc2C1 [Compound 4051]")
1623
>>> quantitative_result("CCC(F)(CC)CN1CCC(c2cn(Cc3ccc(-c4nnc(C(F)F)o4)cn3)nn2)CC1 [Compound 3896]")
187
>>> quantitative_result("CCC(=O)N1CC(c2cn(Cc3ccc(-c4nnc(C(F)F)o4)cn3)nn2)C1 [Compound 3957]")
100
>>> quantitative_result("Fc1cc(-c2nnc(C(F)F)o2)ccc1Cn1cc(-c2cccc(NC3CCOCC3)c2)nn1 [Compound 4331]")
1106
>>> quantitative_result("C[C@@H]1CN(c2cccc(-c3cn(Cc4ccc(-c5nnc(C(F)F)o5)cc4)nn3)c2)C[C@H](C)N1 [Compound 4440]")
1655
>>> quantitative_result("CN1CCC(Cc2cn(Cc3ccc(-c4nnc(C(F)F)o4)cn3)nn2)CC1 [Compound 4014]")
246
>>> quantitative_result("CC(C)N1CCC(Nc2cccc(-c3cn(Cc4ccc(-c5nnc(C(F)F)o5)cc4F)nn3)c2F)CC1 [Compound 4432]")
2427
>>> quantitative_result("FC(F)c1nnc(-c2ccc(Cn3cc(-c4cccc(C5CCN(C6COC6)CC5)c4)nn3)nc2)o1 [Compound 4013]")
2183
>>> quantitative_result("Fc1ccc(N2CCNCC2)cc1-c1cn(Cc2ccc(-c3nnc(C(F)F)o3)cc2)nn1 [Compound 4450]")
2604
>>> quantitative_result("CN1C[C@@H]2C[C@H]1CN2c1cc(-c2cn(Cc3ccc(-c4nnc(C(F)F)o4)cc3F)nn2)ccc1F [Compound 4430]")
351
>>> quantitative_result("FC(F)c1nnc(-c2ccc(Cn3cc(C4CCCC4)nn3)nc2)o1 [Compound 3846]")
630

###

# tested-system: human recombinant HDAC6 (Homo sapiens)
# Construct: purchased Calbiochem Inc. 382180
# method-summary: HDAC6 enzyme activity inhibition (HDAC Fluorimetric Drug Discovery Kit)
# Type: biochemical
# experimental-setup: human recombinant HDAC6, same protocol as HDAC1
pIC50: −log10 of the molar value.
measure: pIC50

>>> quantitative_result("CC(C)N1Cc2cccc(-c3cn(Cc4ccc(-c5nnc(C(F)F)o5)cc4F)nn3)c2C1")
7.06
>>> quantitative_result("CN1Cc2cccc(-c3cn(Cc4ccc(-c5nnc(C(F)F)o5)cc4F)nn3)c2C1")
7.03
>>> quantitative_result("CCN1CCN(c2cccc(-c3cn(Cc4ccc(-c5nnc(C(F)F)o5)cc4F)nn3)c2F)CC1")
7.73
>>> quantitative_result("Fc1cc(-c2nnc(C(F)F)o2)cnc1Cn1cc(-c2cccc3[nH]ccc23)nn1")
7.50
>>> quantitative_result("CC1CCN(Cc2ccc(-c3cn(Cc4ccc(-c5nnc(C(F)F)o5)cc4F)nn3)cc2)CC1")
7.75
>>> quantitative_result("Fc1c(-c2cn(Cc3ccc(-c4nnc(C(F)F)o4)cn3)nn2)cccc1N1CCN(CC2CC(F)(F)C2)CC1")
7.44
>>> quantitative_result("CN(C)Cc1cc(Cl)cc(-c2cn(Cc3ccc(-c4nnc(C(F)F)o4)cc3F)nn2)c1")
7.29
>>> quantitative_result("Fc1cc(-c2nnc(C(F)F)o2)ccc1Cn1cc(-c2csc(CN3CCC3)c2)nn1")
7.12
>>> quantitative_result("Fc1cc(-c2nnc(C(F)F)o2)ccc1Cn1cc(-c2ccc(CN3CC[C@@H](F)C3)cc2)nn1")
7.70
>>> quantitative_result("Fc1cc(-c2nnc(C(F)F)o2)ccc1Cn1cc(-c2cnc3[nH]ccc3c2)nn1")
8.08
>>> quantitative_result("Fc1cc(-c2nnc(C(F)F)o2)ccc1Cn1cc(-c2ccc(CN3CCCC3)nc2)nn1")
7.37
>>> quantitative_result("Fc1cc(-c2nnc(C(F)F)o2)ccc1Cn1cc(-c2ccc(CN3CCC3)nc2)nn1")
7.29
>>> quantitative_result("FC(F)c1nnc(-c2ccc(Cn3cc(-c4cccc(C5CN(C6COC6)C5)c4)nn3)cc2)o1")
7.19
>>> quantitative_result("CN(C)Cc1cccc(-c2cn(Cc3ncc(-c4nnc(C(F)F)o4)cc3F)nn2)c1Cl")
7.11
>>> quantitative_result("CC(C)N1CC(c2cccc(-c3cn(Cc4ccc(-c5nnc(C(F)F)o5)cc4)nn3)c2)C1")
7.68
>>> quantitative_result("CN1Cc2ccc(-c3cn(Cc4ccc(-c5nnc(C(F)F)o5)cn4)nn3)cc2C1")
7.07

###

# tested-system: human recombinant HDAC6 (Homo sapiens, UniProt Q9UBN7)
# Construct: purchased Calbiochem Inc. 382180
# method-summary: HDAC6 enzyme activity inhibition (HDAC Fluorimetric Drug Discovery Kit)
# Format: biochemical
# experimental-setup: human recombinant HDAC6; IC50 calculated with GraphPad Prism
pIC50: −log10 of the molar value.
Classification field: enter 1 for pIC50 values not below 7, -1 for values below it.

>>> group_label("FC(F)c1nnc(-c2ccc(Cn3cc(-c4ccc5[nH]ccc5c4)nn3)nc2)o1")
1
>>> group_label("COC(=O)N1CCC(c2cn(Cc3ccc(-c4nnc(C(F)F)o4)cn3)nn2)CC1")
-1
>>> group_label("Cc1cc2cc(-c3cn(Cc4ccc(-c5nnc(C(F)F)o5)cn4)nn3)ccc2[nH]1")
1
>>> group_label("FC(F)c1nnc(-c2ccc(Cn3cc(-c4ccccc4-n4cncn4)nn3)nc2)o1")
-1
>>> group_label("Fc1cc(-c2nnc(C(F)F)o2)ccc1Cn1cc(-c2ccc3cn[nH]c3c2)nn1")
1
>>> group_label("CCN1CCCC(c2cn(Cc3ccc(-c4nnc(C(F)F)o4)cn3)nn2)C1 (centres unmarked)")
-1
>>> group_label("Fc1cc(-c2nnc(C(F)F)o2)ccc1Cn1cc(-c2cccc(NC3CCCCC3)c2)nn1")
-1
>>> group_label("CC(C)N1CCc2cc(-c3cn(Cc4ccc(-c5nnc(C(F)F)o5)cn4)nn3)ccc2C1")
1
>>> group_label("FC(F)c1nnc(-c2ccc(Cn3cc(-c4ccc(Br)nc4)nn3)nc2)o1")
1
>>> group_label("FC(F)c1nnc(-c2ccc(Cn3cc(-c4cccs4)nn3)nc2)o1")
1
>>> group_label("CN(C)C1CCN(Cc2ccc(-c3cn(Cc4ccc(-c5nnc(C(F)F)o5)cc4F)nn3)cc2)CC1")
1
>>> group_label("FC(F)(F)c1nnc(-c2ccc(Cn3nnc(-c4cccs4)n3)nc2)o1")
1
>>> group_label("Fc1cc(-c2nnc(C(F)F)o2)ccc1Cn1cc(-c2ccc(CNC3COC3)cc2)nn1")
1
